Biological target: brain histamine H2 -receptor (Cavia porcellus, UniProt P47747)
Construct: from tissue; host or cells: guinea pig cerebral cortex membranes
Sequence (P47747 whole entry): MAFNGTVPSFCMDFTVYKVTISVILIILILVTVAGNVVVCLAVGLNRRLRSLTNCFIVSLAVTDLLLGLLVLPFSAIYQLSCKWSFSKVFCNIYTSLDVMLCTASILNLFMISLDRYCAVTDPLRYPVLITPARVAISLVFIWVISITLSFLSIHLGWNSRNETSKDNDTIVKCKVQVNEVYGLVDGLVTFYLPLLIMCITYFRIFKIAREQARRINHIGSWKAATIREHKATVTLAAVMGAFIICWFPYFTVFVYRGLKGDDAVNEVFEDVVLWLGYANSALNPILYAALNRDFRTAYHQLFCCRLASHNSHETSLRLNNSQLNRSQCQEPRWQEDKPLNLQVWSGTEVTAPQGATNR
Assay: Inhibition of 3H-tiotidine binding to guinea pig cerebral cortex membranes
Details: 3H-tiotidine, guinea pig cerebral cortex membranes; read-out: pKi cortex (converted)
Listed next: entries and their corresponding Ki.
// return numeric value only (unit: nM, not printed)

In the examples that follow, each entry is paired with its recorded Ki.
(Q) Please indicate Ki recorded for c1cnc(NCCCOc2cccc(CN3CCCCC3)c2)nc1
(A) 3160

(Q) Please indicate Ki recorded for c1cncc(NCCCOc2cccc(CN3CCCCC3)c2)c1
(A) 794

(Q) Please indicate Ki recorded for c1cc(CN2CCCCC2)cc(OCCCNc2ccc3ccccc3n2)c1
(A) 12.6

New cases:
(Q) Please indicate Ki recorded for c1cc(CN2CCCCC2)cc(OCCCNc2nccc3ccccc23)c1
(A) 39.8

---

Target: brain histamine H2 -receptor (Cavia porcellus, UniProt P47747)
Construct: from tissue; host or cells: guinea pig cerebral cortex membranes
Assay: Inhibition of 3H-tiotidine binding to guinea pig cerebral cortex membranes
Settings: 3H-tiotidine, guinea pig cerebral cortex membranes; read-out: pKi cortex (converted)
Listed next: entries and their corresponding Ki.
// return numeric value only (unit: nM, not printed)

(Q) Please indicate Ki recorded for c1cc(CN2CCCCC2)cc(OCCCc2nc3ccccc3[nH]2)c1 [Example 27]
(A) 100

New cases:
(Q) Please indicate Ki recorded for c1cc(CN2CCCCCC2)cc(OCCCNc2nc3ccccc3s2)c1 [Example 23]
(A) 1260

(Q) Please indicate Ki recorded for Cc1cc2nc(NCCCOc3cccc(CN4CCCCC4)c3)sc2cc1C [Example 24]
(A) 398

(Q) Please indicate Ki recorded for c1cc(CN2CCCCC2)cc(OCCCCc2nc3ccccc3[nH]2)c1 [Example 28]
(A) 39.8

(Q) Please indicate Ki recorded for c1cc(CN2CCCCC2)cc(OCCc2nc3ccccc3[nH]2)c1 [Example 26]
(A) 3980

(Q) Please indicate Ki recorded for c1cc(CN2CCCCC2)cc(OCCCNc2nccs2)c1 [Example 9]
(A) 63.1

---

Target: brain histamine H2 -receptor (Cavia porcellus, UniProt P47747)
Construct: from tissue; host or cells: guinea pig cerebral cortex membranes
Assay: Inhibition of dimaprit stimulated cyclic AMP accumulation in guinea pig hippocampal slices
Assay type: cell-based
readout-name: Ki (nM)
// return numeric value only (unit: nM, not printed)

(Q) Please indicate Ki recorded for c1cc(CN2CCCCC2)cc(OCCCNc2nc3ccccc3s2)c1
(A) 15.8

---

Assay: physchem
Conditions: octanol/water
readout-name: logP
The reply should be a number, written without any unit.

(Q) Please indicate logP recorded for c1cc(CN2CCCCC2)cc(OCCCNc2nc3ccccc3s2)c1 [Example 5]
(A) 1.46

For the next question, use this compound.
(Q) Please indicate logP recorded for c1ccc(NCCCOc2cccc(CN3CCCCC3)c2)nc1 [Example 6]
(A) 2.88

---

Target: brain histamine H2 -receptor (Cavia porcellus)
Construct: from tissue; host or cells: guinea pig cerebral cortex membranes
Assay: Inhibition of dimaprit stimulated cyclic AMP accumulation in guinea pig hippocampal slices
Type: cell-based
Conditions: dimaprit stimulated cyclic AMP accumulation, guinea pig hippocampal slices; read-out: pKi (converted)
Listed next: entries and their corresponding Ki.
// return numeric value only (unit: nM, not printed)

In the examples that follow, each entry is paired with its recorded Ki.
(Q) Please indicate Ki recorded for Cn1c(NCCCOc2cccc(CN3CCCCC3)c2)nc2ccccc21 [Example 10]
(A) 2

(Q) Please indicate Ki recorded for c1cnc(NCCCOc2cccc(CN3CCCCC3)c2)nc1 [Example 4]
(A) 22900

(Q) Please indicate Ki recorded for c1cc(CN2CCCCC2)cc(OCCCNc2nccs2)c1 [Example 9]
(A) 63.1

(Q) Please indicate Ki recorded for c1cc(CN2CCCCC2)cc(OCCCNc2ccc3ccccc3n2)c1 [Example 3]
(A) 10.7

(Q) Please indicate Ki recorded for c1cc(CN2CCCCC2)cc(OCCCNc2nc3ccccc3o2)c1 [Example 1]
(A) 21.9

New cases:
(Q) Please indicate Ki recorded for c1ccc(NCCCOc2cccc(CN3CCCCC3)c2)nc1 [Example 6]
(A) 56.2

(Q) Please indicate Ki recorded for c1cc(CN2CCCCC2)cc(OCCCNc2nc3ccccc3[nH]2)c1 [Description 1]
(A) 37.2
